- tgt: Human VAP-1 (Homo sapiens, UniProt Q16853)
- Sequence (Q16853 1-763): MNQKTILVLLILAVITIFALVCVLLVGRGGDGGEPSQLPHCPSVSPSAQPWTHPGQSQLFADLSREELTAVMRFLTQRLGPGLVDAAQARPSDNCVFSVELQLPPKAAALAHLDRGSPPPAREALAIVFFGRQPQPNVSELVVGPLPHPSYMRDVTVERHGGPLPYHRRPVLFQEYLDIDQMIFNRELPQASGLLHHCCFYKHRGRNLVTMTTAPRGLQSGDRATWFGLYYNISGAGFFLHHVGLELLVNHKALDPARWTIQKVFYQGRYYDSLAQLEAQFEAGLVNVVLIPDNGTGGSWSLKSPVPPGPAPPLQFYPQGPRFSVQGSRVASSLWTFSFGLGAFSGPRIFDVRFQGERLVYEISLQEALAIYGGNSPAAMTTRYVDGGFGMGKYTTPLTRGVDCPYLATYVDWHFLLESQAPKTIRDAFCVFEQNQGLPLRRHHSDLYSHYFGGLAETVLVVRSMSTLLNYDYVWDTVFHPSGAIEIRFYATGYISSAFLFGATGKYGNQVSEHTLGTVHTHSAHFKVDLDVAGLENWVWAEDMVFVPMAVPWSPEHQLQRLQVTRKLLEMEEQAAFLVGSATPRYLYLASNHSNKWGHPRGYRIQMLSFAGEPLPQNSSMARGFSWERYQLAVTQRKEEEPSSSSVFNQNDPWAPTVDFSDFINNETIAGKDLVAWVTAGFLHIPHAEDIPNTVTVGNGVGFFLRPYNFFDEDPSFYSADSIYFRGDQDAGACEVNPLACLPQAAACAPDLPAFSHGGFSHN
- assayDetails: VAP-1 inhibition assay (Amplex Red continuous fluorescence assay)
- Assay type: biochemical
- conditionLabel: 30 min pre-incubation at 37° C.; substrate benzylamine; read-out: Human VAP-1 IC50
pIC50: −log10 of the molar value. Counter-ions that a name gives are not always drawn.
readoutKind: pIC50

>>> reportedvalue("NC/C(=C\\F)COc1ccc(-c2ncon2)cc1 [Compound 43, hydrochloride]")
"> 5.52"
>>> reportedvalue("NC/C(=C\\F)COc1ccc(-c2ccccc2)cc1 [Compound 33, hydrochloride]")
"> 5.52"

Task: Give the measured pIC50 of CCNC(=O)Oc1ccc(OC/C(=C\F)CN)cc1 .
Output: > 5.52

Task: Give the measured pIC50 of CC(=O)N(C/C(=C/F)CN)c1ccccc1 [Compound 1, hydrochloride] .
Output: < 5.00

###

- tgt: Human DAO (Homo sapiens, UniProt P19801)
- Sequence (P19801 20-751): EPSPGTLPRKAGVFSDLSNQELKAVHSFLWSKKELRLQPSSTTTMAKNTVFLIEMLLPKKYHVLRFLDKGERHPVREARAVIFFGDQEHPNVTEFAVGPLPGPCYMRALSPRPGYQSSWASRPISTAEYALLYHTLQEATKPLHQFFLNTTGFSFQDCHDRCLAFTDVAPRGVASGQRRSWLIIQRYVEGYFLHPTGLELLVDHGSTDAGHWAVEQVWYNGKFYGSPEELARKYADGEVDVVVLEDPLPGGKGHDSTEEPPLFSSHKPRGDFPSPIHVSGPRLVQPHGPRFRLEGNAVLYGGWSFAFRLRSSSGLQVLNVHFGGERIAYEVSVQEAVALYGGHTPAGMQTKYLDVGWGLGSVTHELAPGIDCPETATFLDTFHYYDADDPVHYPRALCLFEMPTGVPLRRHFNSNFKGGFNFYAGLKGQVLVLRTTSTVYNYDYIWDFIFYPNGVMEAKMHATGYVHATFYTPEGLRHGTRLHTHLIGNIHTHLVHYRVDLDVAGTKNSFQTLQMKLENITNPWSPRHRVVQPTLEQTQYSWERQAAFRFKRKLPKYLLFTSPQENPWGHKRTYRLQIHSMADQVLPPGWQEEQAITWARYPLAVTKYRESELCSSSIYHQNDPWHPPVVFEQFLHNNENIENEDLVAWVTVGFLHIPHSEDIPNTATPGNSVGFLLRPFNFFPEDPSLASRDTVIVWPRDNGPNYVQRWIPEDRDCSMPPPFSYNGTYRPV
- assayDetails: DAO inhibition (Amplex Red continuous fluorescence assay)
- Assay type: biochemical
- conditionLabel: 30 min pre-incubation at room temp; substrate histamine; read-out: Human DAO IC50
Counter-ions that a name gives are not always drawn.
Known IC50 of a selection of compounds

Solved cases (5 shown):
>>> reportedvalue("NC/C(=C/F)COc1cccc2c1OCO2 [Compound 16, hydrochloride]")
"< 3 µM"
>>> reportedvalue("NC/C(=C/F)COCc1ccccc1 [Compound 6, hydrochloride]")
"3 to 10 µM"
>>> reportedvalue("CC(C)(C)NC(=O)c1ccc2c(ccn2C/C(=C/F)CN)c1 [Compound 59]")
"> 10 µM"
>>> reportedvalue("NC/C(=C\\F)COc1ccc(C(=O)NCCOCCOCCOCCNC(=O)CCCCC2SCC3NC(=O)NC32)cc1 (stereo not drawn) [Compound 77]")
"< 3 µM"
>>> reportedvalue("CC(C)(C)NC(=O)c1cn(CC(=CF)CN)c2ccccc12 [Compound 70]")
"> 10 µM"

Task: Give the measured IC50 of NC/C(=C\F)COc1ccc(-c2cocn2)cc1 [Compound 29, hydrochloride] .
Output: < 3 µM

Task: Give the measured IC50 of NC/C(=C/F)CNC(=O)Nc1ccccc1 [Compound 72] .
Output: < 3 µM

Task: Give the measured IC50 of NC/C(=C\F)Cn1ccc2ccccc21 [Compound 15, hydrochloride] .
Output: > 10 µM

Task: Give the measured IC50 of NC/C(=C\F)COc1ccc(C(=O)NCCOCCOCCOCCOCCOCCOCCOCCOCCOCCOCCOCCNC(=O)CCCCC2SCC3NC(=O)NC32)cc1 (stereo not drawn) [Compound 78] .
Output: < 3 µM

###

- tgt: Human MAO-B (Homo sapiens, UniProt P27338)
- assayDetails: MAO-B inhibition (Amplex Red continuous fluorescence assay)
- Format: biochemical
- conditionLabel: 30 min pre-incubation at room temp; substrate benzylamine; read-out: Human MAO-B IC50
Where a name gives a salt, the structure may show the parent alone.
readoutKind: IC50

Solved cases (2 shown):
>>> reportedvalue("NC/C(=C\\F)COc1cccc2[nH]cnc12 [Compound 2, hydrochloride]")
"> 10 µM"
>>> reportedvalue("CC(C)(C)NC(=O)c1ccc2c(ccn2C/C(=C/F)CN)c1")
"< 3 µM"

Turning to the following compound.
Task: Give the measured IC50 of NC/C(=C\F)COc1cccc2c1OCO2 [Compound 14, hydrochloride] .
Output: < 3 µM

###

Known pIC50 of a selection of compounds
- tgt: Human MAO-B (Homo sapiens)
- Sequence (P27338 1-520): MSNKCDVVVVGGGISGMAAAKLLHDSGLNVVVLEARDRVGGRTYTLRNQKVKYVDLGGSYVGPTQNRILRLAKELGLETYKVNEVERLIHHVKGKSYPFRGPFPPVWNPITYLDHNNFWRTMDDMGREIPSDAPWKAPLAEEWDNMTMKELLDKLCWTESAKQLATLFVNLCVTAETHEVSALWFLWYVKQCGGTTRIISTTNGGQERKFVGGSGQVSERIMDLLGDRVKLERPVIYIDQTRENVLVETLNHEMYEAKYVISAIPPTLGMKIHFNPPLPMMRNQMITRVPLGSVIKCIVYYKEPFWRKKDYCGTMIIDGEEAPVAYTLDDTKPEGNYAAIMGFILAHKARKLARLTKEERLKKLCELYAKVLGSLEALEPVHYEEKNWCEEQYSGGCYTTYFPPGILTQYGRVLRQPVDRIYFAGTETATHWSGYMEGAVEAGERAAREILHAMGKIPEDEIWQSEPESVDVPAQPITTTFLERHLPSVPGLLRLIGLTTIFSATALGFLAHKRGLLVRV
- assayDetails: MAO-B inhibition (Amplex Red continuous fluorescence assay)
- Type: biochemical
- conditionLabel: 30 min pre-incubation at room temp; substrate benzylamine; read-out: Human MAO-B IC50
pIC50: −log10 of the molar value. Structures can show the parent of a compound that is named as a salt.

Solved cases (5 shown):
>>> reportedvalue("NC/C(=C/F)COc1ccc(-c2ncon2)cc1 [Compound 44, HYDROCHLORIDE]")
"> 5.52"
>>> reportedvalue("NC/C(=C\\F)COc1ccc(-c2ncc[nH]2)cc1")
"< 5.00"
>>> reportedvalue("NC/C(=C\\F)Cn1ncc(-c2ccc(O)cc2)n1 [Compound 57, hydrochloride]")
"5.00 to 5.52"
>>> reportedvalue("CCNC(=O)Oc1ccc(OC/C(=C\\F)CN)cc1")
"> 5.52"
>>> reportedvalue("NC/C(=C\\F)COc1ccc(-c2nnn[nH]2)cc1 [Compound 51, hydrochloride]")
"< 5.00"

Task: Give the measured pIC50 of NC/C(=C\F)COc1ccc(C(=O)NCCOCCOCCOCCOCCOCCOCCOCCOCCOCCOCCOCCNC(=O)CCCCC2SCC3NC(=O)NC32)cc1 (centres unmarked) .
Output: < 5.00

Task: Give the measured pIC50 of NC/C(=C\F)COc1ccc(-c2ncn[nH]2)cc1 .
Output: > 5.52

Task: Give the measured pIC50 of NC/C(=C/F)COc1cnc(N2CC[C@H](O)C2)nc1 .
Output: < 5.00

Task: Give the measured pIC50 of CCNC(=O)N(C)c1ccc(NC/C(=C/F)CN)cc1 .
Output: < 5.00

Task: Give the measured pIC50 of CCNC(=O)Oc1ccc(OC/C(=C/F)CN)cc1 .
Output: > 5.52
